Ref: patent US20240424127A1

- Target Desc: T1, IL-7 receptor (IL-7Rα/γc heterodimer) on primary human T cells (human, UniProt P16871 21-459; P31785 23-369)
- T1 sequence (looked up) 1: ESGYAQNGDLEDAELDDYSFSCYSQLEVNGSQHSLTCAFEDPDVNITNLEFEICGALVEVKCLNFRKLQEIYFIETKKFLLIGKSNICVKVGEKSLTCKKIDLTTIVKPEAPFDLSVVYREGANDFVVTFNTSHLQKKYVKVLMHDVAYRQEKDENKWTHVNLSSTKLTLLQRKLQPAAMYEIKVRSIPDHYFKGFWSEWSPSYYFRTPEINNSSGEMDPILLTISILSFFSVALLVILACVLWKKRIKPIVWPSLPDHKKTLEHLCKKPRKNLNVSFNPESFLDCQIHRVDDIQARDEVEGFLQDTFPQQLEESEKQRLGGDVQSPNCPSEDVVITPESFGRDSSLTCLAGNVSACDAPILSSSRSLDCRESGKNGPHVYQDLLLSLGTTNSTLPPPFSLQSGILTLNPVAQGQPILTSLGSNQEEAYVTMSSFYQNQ
- T1 sequence (looked up) 2: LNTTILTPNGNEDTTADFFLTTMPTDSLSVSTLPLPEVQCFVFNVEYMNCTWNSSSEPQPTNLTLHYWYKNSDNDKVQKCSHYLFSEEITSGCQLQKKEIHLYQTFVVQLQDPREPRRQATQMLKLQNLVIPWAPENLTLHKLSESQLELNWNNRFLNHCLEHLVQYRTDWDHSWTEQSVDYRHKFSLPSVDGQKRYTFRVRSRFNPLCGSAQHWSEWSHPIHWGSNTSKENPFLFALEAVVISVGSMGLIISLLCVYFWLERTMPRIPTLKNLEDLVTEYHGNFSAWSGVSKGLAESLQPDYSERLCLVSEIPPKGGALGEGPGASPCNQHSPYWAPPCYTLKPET
- Protocol Notes: cell-based or functional assay
Bridges are numbered along the chain shown (N, C = ends). [ ]: non-standard residue; d: D form. glutaryl‑PEG9‑azide = glutaryl-PEG9-azide group on the N-terminal amine; L6P = lysine side chain carrying PEG6-NH2 (diglycolyl-PEG-amine); hSer = N[C@@H](CCO)C(=O)O; Nle = CCCC[C@H](N)C(=O)O
Quantity Name: EC50 pSTAT5, CD4 Treg (nM)
Please give a number only; it is taken to be in nM.

Recorded EC50 pSTAT5, CD4 Treg, per entry:
EC50 pSTAT5, CD4 Treg reported for this binder CMP-202, synthetic IL-7 variant of Example 2W (ligand, disulfide 34-129, 47-141) {glutaryl‑PEG9‑azide}-DSDIEGKDGKQYESVL[Nle]VSIDQLLDS[Nle]KEIGSNCL[hSer]NEFNFFKRHICDANKEG[Nle]FLFRAARKLRQFLK[Nle]NSTGDF[hSer]LHLLK(L6P)VSENTTILLNSTGQVKGRKPAALGEAQPTKSL[hSer]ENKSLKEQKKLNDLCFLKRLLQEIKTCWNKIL[Nle]GTKEH-NH2 : 32.7

EC50 pSTAT5, CD4 Treg reading for CMP-111, synthetic IL-7 K81(L6P), G85N of SEQ ID NO: 8 with glutaryl-PEG9-azide at the N-terminus (ligand, disulfide 34-129, 47-141, 2-92) {glutaryl‑PEG9‑azide}-DCDIEGKDGKQYESVL[Nle]VSIDQLLDS[Nle]KEIGSNCL[hSer]NEFNFFKRHICDANKEG[Nle]FLFRAARKLRQFLK[Nle]NSTGDF[hSer]LHLLK(L6P)VSENTTILLNCTGQVKGRKPAALGEAQPTKSL[hSer]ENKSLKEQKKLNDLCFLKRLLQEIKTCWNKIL[Nle]GTKEH-NH2 : 82.3

Read the next record carefully.
Field EC50 pSTAT5, CD4 Treg (entry CMP-106, recombinant IL-7 V15W with His-tag (ligand, V15W is already in the entry, which also includes the C-terminal His-tag; also called IL-7 V15W (Recomb-HIS6)) DCDIEGKDGKQYESWLMVSIDQLLDSMKEIGSNCLNNEFNFFKRHICDANKEGMFLFRAARKLRQFLKMNSTGDFDLHLLKVSEGTTILLNCTGQVKGRKPAALGEAQPTKSLEENKSLKEQKKLNDLCFLKRLLQEIKTCWNKILMGTKEHVDHHHHHH ) reads 27.7
